Assay name: NCI Yeast Anticancer Drug Screen. Data for the cln2 rad14 strain (AID 165);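 further: 0% = growth equal to vehicle treated cultures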
Test conditions: S. cerevisiae cln2 rad14 strain, at 50.0 µM, hits give high values
Compounds without any hit were thinned out: in the full panel of roughly 79,000, 15% have a hit.
Reported growth inhibition values follow for various compounds
Recorded endpoint: growth inhibition (%)

Cc1cc(NCc2ccccc2)c2ccccc2[n+]1CCCCCCCCCC[n+]1c(C)cc(NCc2ccccc2)c2ccccc21    91.1
O=c1c[n+](-c2ccc[nH+]c2)[nH]o1.[Cl][Hg][Cl]    99.3
CCN(CCCl)c1cc(CN(C)C)cc(NC(=O)c2ccc(C(=O)Nc3cc(CN(C)C)cc(N(CC)CCCl)c3)cc2)c1    35
CCCCS.[Hg]    98.7
C[C@]12CC[C@H](OC(=O)COc3ccc(N(CCCl)CCCl)cc3)C[C@@H]1CC[C@@H]1[C@@H]2CC[C@]2(C)NC(=O)CC[C@@H]12    5.4
COC1OC(COC(C)=O)C(OC(C)=O)C(OC(C)=O)[C]1(OC(C)=O)[Hg][O]C(C)=O (centres undefined)    99.4
Oc1cccc[c]1[Hg][Cl]    98.6
CCCCCC(Cn1ccnc1)c1ccc(Cl)cc1Cl (centres undefined)    99.7
CC(=O)OC(C)(C)/C=C/C(=O)[C@](C)(O)[C@H]1[C@H](O)C[C@@]2(C)[C@@H]3CC=C4[C@@H](C[C@H](O)[C@H](O)C4(C)C)[C@]3(C)C(=O)C[C@]12C    91.1

Source: PubChem BioAssay (NCI)
